- Measurement Target: T1, recombinant extracellular domain of CD38 (human, UniProt P28907 43-300)
- T1 construct: also called CD38 extracellular domain; AtaGenix ATMP00140HU
- Assay Procedure: Biacore SPR
// Kd lookup, one value per entry
Reply numerically in nM, unit not repeated.

Use the examples below as a reference point.
- Binder: "FTL004-hu-8 (antibody, human IgG1, kappa, V domains shown, also called FLT004-hu-8; FTL004-hum-8) VH: QVQLVQSGAEVKKPGASVKVSCKASGYTFTDYNVHWIRQAPGQGLEWIGYFYPRNGATHYAQKFQGRVTMTVDTSTSTAYMELSSLRSEDTAVYYCARGETPGTFPYWGQGTLVTVSS VL: DIVLTQSPASLAVSPGQRATITCRASESVDNFGITFMHWYQQKPGQPPKLLIYRASNLESGVPARFSGSGSRTDFTLTINPVEANDTANYYCQQSSKDPRTFGQGTKLEIKR"
  Kd, nM: 8.39
- Binder: "FTL004-hu-17 (antibody, human IgG1, kappa, V domains shown, also called FLT004-hu-17; FTL004-hum-17) VH: EVQLVQSGAEVKKPGATVKISCKASGYTFTDYNVHWIQQAPGKGLEWIGYFYPRNGATHYNQKFTGRATLTADTSTDTAYMEISSLRSEDTAVYFCARGETPGTFPYWGQGTLVTVSS VL: DIQLTQSPSSLSASVGDRVTITCRASESVDNFGITFMHWYQQKPGKAPKLLIYRASNLESGVPSRFSGSGSRTDFTLTISSLQPEDFATYYCQQSSKDPRTFGQGTKLEIKR"
  Kd, nM: 3.09

Quick one: Kd of FTL004-hu-4 (antibody, human IgG1, kappa, V domains shown, also called FLT004-hu-4; FTL004-hum-4) VH: QVQLVQSGSELKKPGASVKVSCKASGYTFTDYNVHWIRQAPGQGLEWIGYFYPRNGATHYAQGFTGRAVLSADTSVSTAYLQISSLKAEDTAVYYCARGETPGTFPYWGQGTLVTVSS VL: EIVLTQSPATLSLSPGERATLSCRASESVDNFGITFMHWYQQKPGQAPRLLIYRASNLESGIPARFSGSGSRTDFTLTISSLEPEDFAVYYCQQSSKDPRTFGQGTKLEIKR ?
10.5
